Molecular target: T1, fetuin (Bos taurus (Bovine), UniProt P12763, sialylated glycans (multiple copies of the αNeu5Ac(2→3)βGal(1→4)βGlc- structure))
T1 sequence: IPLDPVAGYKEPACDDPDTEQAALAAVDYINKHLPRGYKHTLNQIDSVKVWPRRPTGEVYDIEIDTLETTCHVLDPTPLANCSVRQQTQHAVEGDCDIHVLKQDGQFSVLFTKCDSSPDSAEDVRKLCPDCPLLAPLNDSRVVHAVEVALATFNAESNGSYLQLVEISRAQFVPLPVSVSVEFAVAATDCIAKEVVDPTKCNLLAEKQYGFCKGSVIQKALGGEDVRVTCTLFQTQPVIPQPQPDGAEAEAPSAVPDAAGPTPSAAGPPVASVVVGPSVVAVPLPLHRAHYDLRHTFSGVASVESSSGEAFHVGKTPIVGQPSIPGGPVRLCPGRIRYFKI
Test: inhibition ELISA; competitor WGA-biotin on coated fetuin
No end group written: not given here.
readout: IC50 (mM)

INSERT INTO assay_data (binder, readout, reading) VALUES
  ('PQEQITQHGSPYGRC (also: acetylated, site not given here) [ACS2P1]', 'IC50', 3.25);

These data points were gathered from patent US5736143.
